- METHOD NOTES: Toxicity in CD1 mouse assessed as decrease in body weight at 80 mg/kg/day, ip administered thrice weekly and observed at day 5 to 7
- Type: organism-based
- MEASUREMENT SETUP: in vivo, 72 h, time 3 day

[
  {
    "COMPOUND": "COc1ccc(C(=O)Nc2ccc(N(C)S(C)(=O)=O)c(OCc3cc(OC)ccc3OC)c2)cc1",
    "Activity": "Toxic"
  },
  {
    "COMPOUND": "COc1ccc(C(=O)Nc2ccc(NS(C)(=O)=O)c(OCc3cc(OC)ccc3OC)c2)cc1",
    "Activity": "Non-Toxic"
  },
  {
    "COMPOUND": "CCS(=O)(=O)N(C)c1ccc(NC(=O)c2ccc(OC)cc2)cc1OCc1cc(OC)ccc1OC",
    "Activity": "Toxic"
  },
  {
    "COMPOUND": "CCS(=O)(=O)Nc1ccc(NC(=O)c2ccc(OC)cc2)cc1OCc1cc(OC)ccc1OC",
    "Activity": "Non-Toxic"
  }
]

* * *

- METHOD NOTES: Dissociation constant, pKa of the compound
- Assay type: physicochemical
PROPERTY: pKa
Answers are plain numbers.

[
  {
    "COMPOUND": "COc1ccc(C(=O)Nc2ccc(NS(C)(=O)=O)c(OCc3cc(OC)ccc3OC)c2)cc1",
    "pKa": 8.65
  }
]

Now for a further compound.
Exercise: Name the reported pKa value associated with the compound CS(=O)(=O)Nc1ccc([N+](=O)[O-])cc1Oc1ccccc1 [NIMESULIDE]
Key: 5.93
